// reported pEC50 for each item listed
- test: Agonistic activity towards beta-3 adrenoceptor. Mean concentration required to produce 50% relaxation of detrusor before the addition in the ferret detrusor
The meaning of pEC50 here: minus log10 of the concentration in molar units.

// pEC50 lookup, molecule = C[C@H](NCCc1ccc(NCC(=O)O)cc1Cl)[C@H](O)c1ccc(O)cc1 , result: 8.14

// pEC50 lookup, molecule = C[C@H](NCCc1ccc(N(C)CC(=O)O)cc1)[C@H](O)c1ccc(O)cc1 , result: 7.28

// pEC50 lookup, molecule = C[C@H](NCCc1ccc(NCC(=O)O)c(Br)c1)[C@H](O)c1ccc(O)cc1 , result: 6.24

// pEC50 lookup, molecule = C[C@H](NCCc1ccc(N(C)CC(=O)O)c(Cl)c1)[C@H](O)c1ccc(O)cc1 , result: 7.96

// pEC50 lookup, molecule = C[C@H](NCCc1ccc(NC(C)(C)C(=O)O)cc1Cl)[C@H](O)c1ccc(O)cc1 , result: 8.25

// pEC50 lookup, molecule = C[C@H](NCCc1ccc(NCC(=O)O)c(Cl)c1Cl)[C@H](O)c1ccc(O)cc1 , result: 6.34

// pEC50 lookup, molecule = C[C@H](NCCc1cc(Cl)c(N(C)CC(=O)O)c(Cl)c1)[C@H](O)c1ccc(O)cc1 , result: 6.80

// pEC50 lookup, molecule = C[C@H](NCCc1cc(Cl)c(NCC(=O)O)cc1Cl)[C@H](O)c1ccc(O)cc1 , result: 7.21

Field: next molecule
// pEC50 lookup, molecule = C[C@H](NCCc1cc(Br)c(NCC(=O)O)c(Br)c1)[C@H](O)c1ccc(O)cc1 , result: 7.09
